- Tested on: OVCAR-5 ovarian
- PROTOCOL_NOTES: NCI-60 one-dose screen, 48 h (100 = growth as untreated, 0 = no growth, -100 = all killed)
- TEST_PARAMETERS: 10 µM unless noted
The panel holds about 83,000 compounds, 20% with a hit somewhere; the sample as a whole holds those more often.
Quick list: growth per entry.
Lab book: enter the figure in %, no units written.

Below: 5 compounds and their reported growth.
Nc1ncc(-c2ccc(NS(=O)(=O)c3ccc(Cl)c(Cl)c3)cc2)[nH]1 = 90.4
O=C(O)c1ccc(-n2cc(CNc3cc(F)c(F)c(F)c3)c(-c3ccc(F)cc3)n2)cc1 = 108
O=C(NNc1nc2cc(F)c(F)cc2n2c(CN3CC4CNCC4C3)ccc12)c1ncccn1 (centres undefined) = 40
Nc1nc(N)c2c(n1)NC(c1ccc(C(F)(F)F)cc1)CC(c1ccc(Nc3nc(NCCO)nc(N4CCOCC4)n3)cc1)=N2 (centres undefined) = 97.6
CCc1cccc2c3c(sc12)C(c1ccc(OC)cc1)C(C#N)=C(/N=C/c1ccc(Cl)cc1)O3 (centres undefined) = 45.7

In: Item NC(N)=Nc1ccc(Oc2cccc(Nc3ccc(Br)c(C(F)(F)F)c3)c2)cn1 has what recorded growth?
Out: -56.6

In: Item Cc1ccc(-c2nnc(SCc3ccc(O)c4ncccc34)n2-c2ccccc2)cc1 has what recorded growth?
Out: 37.5

In: Item CCNC(=O)N1CCc2cc(OC)c(OCCc3ccc(OC)nc3)cc2C1c1ccc(OC)cc1C (centres undefined) has what recorded growth?
Out: 51

In: Item CCOC(=O)C(=O)CC(=O)N1C(=S)NC(=O)C1CC(C)C (centres undefined) has what recorded growth?
Out: 98.5

* * *

Quick list: growth per entry.
- Test system: COLO 205 colon
- PROTOCOL_NOTES: NCI-60 one-dose screen, 48 h (100 = growth as untreated, 0 = no growth, -100 = all killed)
- TEST_PARAMETERS: 10 µM unless noted
The panel holds about 83,000 compounds, 20% with a hit somewhere; the sample as a whole holds those more often.
Lab book: enter the figure in %, no units written.

Below: 8 molecules and their reported growth.
CCCSc1nc(Nc2ccc(/C(C)=N\NC(N)=S)cc2)c(C#N)c(-c2ccccc2)n1 = 79.9
CC1=N[C@@H]2CN(C(=O)OC(C)(C)C)C[C@@H]2n2c1cc1ccccc1c2=O = 107
CC(=O)c1ccc(Nc2nc(SCC(C)C)nc(-c3ccc(F)cc3)c2C#N)cc1 = 115
O=S(=O)(NCCNc1nccc(-n2cnc3ccccc32)n1)c1ccc(C(F)(F)F)cc1 = 64.9
CS(=O)(=O)Nc1cc(-c2ccc3ncc(C#N)c(Nc4cccc(Cl)c4F)c3c2)cnc1Cl = -74.5
COc1cc(-c2nnc(SCc3ccc(O)c4ncccc34)n2-c2ccccc2)cc(OC)c1OC = 10.1
Brc1ccccc1/C=N/Nc1nc(N/N=C/c2ccccc2Br)nc(N2CCOCC2)n1 = 86.1
CN1CCC(n2cc(Nc3ncc4c(=O)n(-c5c(Cl)cccc5Cl)cc(Br)c4n3)cn2)CC1 = 22.5

In: Item COc1ccc([C@@H]2c3[nH]c4ccccc4c3C[C@H]3C(=O)N(C4CCN(CC5CCCCC5)CC4)CC(=O)N23)c(OC)c1 has what recorded growth?
Out: 51.2

* * *

- System: A549/ATCC NSCLC
- PROTOCOL_NOTES: NCI-60 one-dose screen, 48 h (100 = growth as untreated, 0 = no growth, -100 = all killed)
- TEST_PARAMETERS: 10 µM unless noted
The panel holds about 83,000 compounds, 20% with a hit somewhere; the sample as a whole holds those more often.
Our labelling divides records by growth into ranges: bin A (below 40%), bin B (40% to below 90%), bin C (90% or more)

// known answers, use as guide
CCCCCc1ccc(S(=O)(=O)Nc2cccc(-c3csc(NC(=O)CCCCCN4CCN(C)CC4)n3)c2)cc1 = bin B
C=C(C=O)[C@@H]1CC[C@]2(COC(C)=O)CC[C@]3(C)C(CC[C@@H]4[C@@]5(C)CC[C@H](OC(C)=O)C(C)(C)[C@@H]5CC[C@]43C)[C@@H]12 (some centres not stated) = bin A
COc1cc2nc(Cl)nc(Nc3cccc(C4=Nc5c(N)nc(N)nc5NC(c5ccc(Cl)cc5)C4)c3)c2cc1OC (configuration not stated) = bin A
C=C(C)[C@@H]1CC[C@]2(COP(=O)(OCC)OCC)CC[C@]3(C)[C@H](CC[C@@H]4[C@@]5(C)CCCNC(C)(C)[C@@H]5CC[C@]43C)[C@@H]12 = bin A

In: Form: Item = NC(N)=Nc1ccc(Oc2cccc(NC(N)=Nc3ccc(Cl)c(C(F)(F)F)c3)c2)cn1 ; Class = ?
Out: bin B

In: Form: Item = NC(=O)c1c(NC(=O)c2ccc(F)cc2F)sc2c1CCC(=O)C2 ; Class = ?
Out: bin C

In: Form: Item = CCc1cccc2c3c(sc12)C(c1ccc(Cl)cc1)C(C#N)=C(/N=C/c1ccc(Cl)cc1)O3 (configuration not stated) ; Class = ?
Out: bin A

In: Form: Item = N/C(=N\C(N)=N\c1nc2ccccc2s1)c1ccncc1Cl ; Class = ?
Out: bin B

In: Form: Item = CN1CCN(c2ccc(/C=N/Nc3nc4ccccc4c(=O)n3-c3ccccc3)cc2)CC1 ; Class = ?
Out: bin C

In: Form: Item = COc1ccc(C(=O)CSc2nc3c(c(Nc4ccc(S(N)(=O)=O)cc4)n2)CCCC3)cc1 ; Class = ?
Out: bin C

In: Form: Item = N#Cc1cccc(NC(=O)c2cc(-c3ccc(F)cc3F)ccc2O)c1 ; Class = ?
Out: bin A

In: Form: Item = CN1CCN(Cc2ccc(NC(=O)c3cncc(C#Cc4cnc5ccc(NCCCO)nn45)c3)cc2C(F)(F)F)CC1 ; Class = ?
Out: bin A
